target under test: Neuronal acetylcholine receptor subunit alpha-7 (Homo sapiens, UniProt P36544)
Sequence (P36544 whole entry): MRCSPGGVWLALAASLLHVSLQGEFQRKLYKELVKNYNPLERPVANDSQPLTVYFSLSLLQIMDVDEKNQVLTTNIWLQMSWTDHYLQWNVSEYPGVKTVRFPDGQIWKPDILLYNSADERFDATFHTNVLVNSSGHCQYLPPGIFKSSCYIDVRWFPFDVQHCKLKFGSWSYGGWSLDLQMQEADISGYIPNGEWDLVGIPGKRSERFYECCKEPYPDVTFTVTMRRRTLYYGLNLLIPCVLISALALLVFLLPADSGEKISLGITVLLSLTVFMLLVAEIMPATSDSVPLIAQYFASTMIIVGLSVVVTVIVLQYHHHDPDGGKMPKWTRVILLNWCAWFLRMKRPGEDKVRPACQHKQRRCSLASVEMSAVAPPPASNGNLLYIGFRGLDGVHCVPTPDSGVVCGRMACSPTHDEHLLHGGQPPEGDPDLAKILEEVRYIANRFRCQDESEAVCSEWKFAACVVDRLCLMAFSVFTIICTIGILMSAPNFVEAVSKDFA
assay explanation: Partial agonist activity at human alpha7 nAChR expressed in Xenopus laevis oocytes by voltage clamp electrophysiological method
Type: cell-based
readout kind: pEC50
# pEC50 = -log10(concentration in molar units)

Item "O=C(N[C@H]1CN2CCC1CC2)c1cc2cccc(Cl)c2s1" has what recorded pEC50? 6.41

* * *

assay explanation: Cmax in ICR mouse at 10 mg/kg, po
Type: ADME, organism-based
Parameters: dose 10 mg/kg, route oral
particulars: in vivo
readout kind: Cmax (nM)
Write the number in nM without appending the unit.

Item "Clc1ccc(C[C@@]2(COc3cccnc3)CCCNC2)cc1Cl" has what recorded Cmax? 1100
